These entries and their values trace back to the supplement of paper PMC6555819.

- System: PPARg:RXRa 270nM:90nM, anti-RXR (NR concentration 270 nM, RXRa partner concentration 90 nM)
- assay procedure: PBM binding z-score (relative to random genomic background probes); higher = stronger binding; sequences stand for … in GC…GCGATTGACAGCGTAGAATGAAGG
Classify by measured PBM binding z-score: 1.0 if it is equal to or exceeds 2, 0.0 if it is smaller.

Does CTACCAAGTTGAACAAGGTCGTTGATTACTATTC have a reported PBM binding z-score of at least 2?
0.0

Does CTCGAAAGGTAGTGCTCAGGTGAGTATACCAAAC have a reported PBM binding z-score of at least 2?
0.0

Does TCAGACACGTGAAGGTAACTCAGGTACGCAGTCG have a reported PBM binding z-score of at least 2?
0.0

Does AGAATGAGGGTATACGTAGATCAGGGAAGAAAGT have a reported PBM binding z-score of at least 2?
0.0

Does TCATATAGGTGATACAGGTGAAAGTCGGCATCTA have a reported PBM binding z-score of at least 2?
1.0

Does ATTATTAGTTGAGACGAGGGCAACCGATAGGTTG have a reported PBM binding z-score of at least 2?
0.0

Does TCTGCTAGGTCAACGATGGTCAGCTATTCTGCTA have a reported PBM binding z-score of at least 2?
1.0

Does TCTTGTAGATCAAGCGGGTTAAGAAAGCCTGAGT have a reported PBM binding z-score of at least 2?
0.0

Does TATTGTAGATCAAGCAGGTTAAGAAAGCCTGAGT have a reported PBM binding z-score of at least 2?
0.0

Does TCAGACAGGTGAAGGTAACTCGGGTACGCAGTCG have a reported PBM binding z-score of at least 2?
1.0

Does CCTTACGGGTGAAGGTTATAGCACGGGTGGTACG have a reported PBM binding z-score of at least 2?
0.0
